This section presents compounds with their documented inhibition values.
- targetUnderTest: 3-keto-steroid reductase/17-beta-hydroxysteroid dehydrogenase 7 (Homo sapiens) (UniProt P56937)
- Sequence (P56937 whole entry): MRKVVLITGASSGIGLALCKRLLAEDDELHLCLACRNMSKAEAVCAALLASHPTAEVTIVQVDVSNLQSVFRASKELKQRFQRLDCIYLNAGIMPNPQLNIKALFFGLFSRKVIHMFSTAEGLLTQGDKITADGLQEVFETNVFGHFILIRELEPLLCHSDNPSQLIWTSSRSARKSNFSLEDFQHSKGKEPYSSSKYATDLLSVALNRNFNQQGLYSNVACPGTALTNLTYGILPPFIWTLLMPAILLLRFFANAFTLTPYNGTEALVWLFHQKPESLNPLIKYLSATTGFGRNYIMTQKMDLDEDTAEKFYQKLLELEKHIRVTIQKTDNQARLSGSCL
- conditionSummary: HEK293, at 0.3 µM
- Description: Inhibition of human 17beta-HSD7 expressed in HEK293 cells assessed as inhibition of reduction of [14C]estrone into [14C]estradiol at 0.3 uM after 7 hrs
propertyMeasured: inhibition

1. CCCCCCCN(C(=O)c1cccc(CCl)c1)[C@H]1CC[C@H]2[C@@H]3CC[C@H]4N(C)C(=O)CC[C@]4(C)[C@H]3CC[C@]12C = 24%
2. C=CC[C@@]1(O)CC[C@H]2[C@@H]3CC[C@H]4N(C)C(=O)CC[C@]4(C)[C@H]3CC[C@@]21C = 13.3%
3. CN(C(=O)NC1CCCCC1)[C@H]1CC[C@H]2[C@@H]3CC[C@H]4N(C)C(=O)CC[C@]4(C)[C@H]3CC[C@]12C = 12.2%
4. C[C@]12CC[C@](O)(CCc3ccccc3)C[C@@H]1CC[C@@H]1[C@@H]2CC[C@]2(C)C(=O)CC[C@@H]12 = 0%
5. CN1C(=S)CC[C@]2(C)[C@H]3CC[C@@]4(C)[C@@H](CC[C@@]45CCCC(=S)O5)[C@@H]3CC[C@@H]12 = 5.3%
6. COC(=O)c1ccc2c(c1)CC[C@@H]1[C@@H]2CC[C@@]2(C)[C@H]1CC[C@@]21CCC(C)(C)C(=O)O1 = 15.1%
7. CCCCCCCN(C(=O)c1ccc(C(C)(C)C)cc1)[C@H]1CC[C@H]2[C@@H]3CC[C@H]4N(C)C(=O)CC[C@]4(C)[C@H]3CC[C@]12C = 29%
8. O=c1oc2cc(O)ccc2c2oc3cc(O)ccc3c12 = 5.5%
9. CCCCCCCN(C(=O)c1ccc(C#N)cc1)[C@H]1CC[C@H]2[C@@H]3CC[C@H]4N(C)C(=O)CC[C@]4(C)[C@H]3CC[C@]12C = 56%
